Would you kindly list cell viability for each of these compounds?
# System: SEM cells
# protocol_details: cell viability relative to DMSO control; higher = less cytotoxic
# stated_conditions: RPMI 5 mM glucose + 10% FBS; 48 h; 0.00234 µM

State its cell viability for this compound: `Nc1nccc(-c2ccc3noc(-c4ccc(Cl)cc4)c3c2)n1`
103%

State its cell viability for this compound: `CC(C)C[C@H](CC(=O)O)C(=O)N[C@@H](Cc1c[nH]c2ccccc12)C(=O)N[C@@H](C)c1ccccc1`
112%

State its cell viability for this compound: `COc1ccc(-n2c(C)c([N+](=O)[O-])c3ccc(O)cc32)cc1`
103%

State its cell viability for this compound: `C[C@]12CC[C@H]3[C@@H](CC[C@@]45O[C@@H]4C(O)=C(C#N)C[C@]35C)[C@@H]1CC[C@@H]2O`
84.7%

State its cell viability for this compound: `C[C@@H](Cc1cc2c(c(C(N)=O)c1)N(CCCO)CC2)NCCOc1ccccc1OCC(F)(F)F`
111%

State its cell viability for this compound: `N#Cc1cc(NC(=O)Nc2nnc(-c3ccncc3)s2)ccc1-c1cn[nH]c1`
111%

State its cell viability for this compound: `C[C@@H]1CC[C@@]2(CC[C@]3(C)\C(=C/C[C@@H]4[C@@]5(C)C[C@@H](O)[C@H](O)[C@@](C)(CO)[C@@H]5CC[C@@]34C)[C@@H]2[C@H]1C)C(O)=O`
110%

State its cell viability for this compound: `CC[C@H](CO)Nc1nc(NCc2ccccc2)c2ncn(C(C)C)c2n1`
97.4%

State its cell viability for this compound: `C[S+](=O)([O-])N1CCN(Cc2cc3nc(-c4cccc5[nH]ncc45)nc(N4CCOCC4)c3s2)CC1`
121%

State its cell viability for this compound: CC(O)(C[S+](=O)([O-])c1ccc(F)cc1)C(=O)Nc1ccc(C#N)c(C(F)(F)F)c1 (stereo unspecified)
83.6%

State its cell viability for this compound: `CC(=O)OCC(=O)[C@@]1(O)CC[C@H]2[C@@H]3CCC/4=C/C(=O)/C=C\[C@]4(C)[C@H]3[C@@H](O)C[C@]12C`
124%

###

# Test system: NOMO1
# protocol_details: cell viability relative to DMSO control; higher = less cytotoxic
# stated_conditions: HPLM + 10% dialyzed FBS; 48 h; 0.00234 µM
value_type: cell viability (%)
Entry rule: numbers only, all in %.

Fill in cell viability for `COCC(=O)NC/C=C/c1ccc2ncnc(Nc3ccc(Oc4ccc(C)nc4)c(C)c3)c2c1` tested with NOMO1.
89.4

Fill in cell viability for `CC[C@H]1OC(=O)[C@H](C)[C@@H](O[C@H]2C[C@@](C)(OC)[C@@H](O)[C@H](C)O2)[C@H](C)[C@@H](O[C@@H]2O[C@H](C)C[C@H](N(C)C)[C@H]2O)[C@](C)(O)C[C@@H](C)/C(=N\OCOCCOC)[C@H](C)[C@@H](O)[C@]1(C)O` tested with NOMO1.
95.6

Fill in cell viability for `COc1cc(C[C@@H](CO)[C@H](CO)Cc2ccc(O)c(OC)c2)ccc1O` tested with NOMO1.
99.3

Fill in cell viability for `CCn1c(C(=O)N(C2CC2)C2CC2)cc2c3c(ncn3C)c(Nc3cc(C)n(C)n3)nc21` tested with NOMO1.
113

Fill in cell viability for `NC(=O)N1CCC(CC(=O)N2CCC([C@H]3c4ncc(Br)cc4CCc4cc(Cl)cc(Br)c43)CC2)CC1` tested with NOMO1.
109

Fill in cell viability for `CCCCCN(C)CCC(O)(P(=O)([O-])O)P(=O)(O)O` tested with NOMO1.
81.8

Fill in cell viability for `CCCCN1CCC(CNC(=O)c2c3n(c4ccccc24)CCCO3)CC1` tested with NOMO1.
107
